# test details: phase I part A plasma pharmacokinetics
# Format: in vivo, human
# protocol conditions: human, plasma, inhaled or intranasal, 1 mg
measured quantity: AUC(0-t) (ng·h/mL)

{"molecule": "CCc1cc(O)ccc1-c1ccc2c(-c3nc4c([nH]3)CN(C(C)C)[C@H](C(=O)N3CC(N(C)C)C3)C4)n[nH]c2c1", "assay result": 18.7}

---

# test details: phase I part A plasma pharmacokinetics
# Assay type: in vivo, human
# protocol conditions: human, plasma, inhaled or intranasal, 10 mg

{"molecule": "CCc1cc(O)ccc1-c1ccc2c(-c3nc4c([nH]3)CN(C(C)C)[C@H](C(=O)N3CC(N(C)C)C3)C4)n[nH]c2c1 [Nezulcitinib]", "Cmax, ng/mL": 47.3}

---

# test details: phase I part A plasma pharmacokinetics
# Assay type: in vivo, human
# protocol conditions: human, plasma, inhaled or intranasal, 3 mg

{"compound": "CCc1cc(O)ccc1-c1ccc2c(-c3nc4c([nH]3)CN(C(C)C)[C@H](C(=O)N3CC(N(C)C)C3)C4)n[nH]c2c1 [Nezulcitinib]", "AUC(0-t) (ng·h/mL)": 45.2}

---

# test details: phase I part A plasma pharmacokinetics
# Assay type: in vivo, human
# protocol conditions: human, plasma, inhaled or intranasal, 3 mg
measured quantity: Cmax (ng/mL)

{"molecule": "CCc1cc(O)ccc1-c1ccc2c(-c3nc4c([nH]3)CN(C(C)C)[C@H](C(=O)N3CC(N(C)C)C3)C4)n[nH]c2c1", "measured quantity": "Cmax", "unit string": "ng/mL", "assay result": 13.8}

---

# test details: phase I part B plasma pharmacokinetics
# Type: in vivo, human
# protocol conditions: human, plasma, inhaled, 1 mg

{"molecule": "CCc1cc(O)ccc1-c1ccc2c(-c3nc4c([nH]3)CN(C(C)C)[C@H](C(=O)N3CC(N(C)C)C3)C4)n[nH]c2c1", "Tmax": "1 h"}

---

# test details: phase I part B plasma pharmacokinetics
# Assay type: in vivo, human
# protocol conditions: human, plasma, inhaled, 3 mg
measured quantity: AUC (µg·h/mL)

{"molecule": "CCc1cc(O)ccc1-c1ccc2c(-c3nc4c([nH]3)CN(C(C)C)[C@H](C(=O)N3CC(N(C)C)C3)C4)n[nH]c2c1", "measured quantity": "AUC", "assay result": 0.0516}

---

# test details: phase I part A plasma pharmacokinetics
# Type: in vivo, human
# protocol conditions: human, plasma, inhaled or intranasal, 10 mg
measured quantity: Tmax

{"compound": "CCc1cc(O)ccc1-c1ccc2c(-c3nc4c([nH]3)CN(C(C)C)[C@H](C(=O)N3CC(N(C)C)C3)C4)n[nH]c2c1 [Nezulcitinib]", "assay result": "1 h"}

---

# tgt: Tyk2 (Homo sapiens)
# Sequence (P29597 897-1176 limits assumed): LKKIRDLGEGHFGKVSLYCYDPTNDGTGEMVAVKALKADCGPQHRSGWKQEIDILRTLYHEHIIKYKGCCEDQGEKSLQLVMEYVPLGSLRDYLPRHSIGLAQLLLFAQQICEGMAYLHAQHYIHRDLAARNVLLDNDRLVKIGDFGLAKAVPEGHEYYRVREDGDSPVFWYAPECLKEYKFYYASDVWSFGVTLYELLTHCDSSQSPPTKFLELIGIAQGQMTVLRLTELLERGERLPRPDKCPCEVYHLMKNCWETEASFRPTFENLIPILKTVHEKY
pKi: −log10 of the molar value.
measured quantity: pKi

{"molecule": "CCc1cc(O)ccc1-c1ccc2c(-c3nc4c([nH]3)CN(C(C)C)[C@H](C(=O)N3CC(N(C)C)C3)C4)n[nH]c2c1 [Nezulcitinib]", "measured quantity": "pKi", "assay result": 9.20}

---

# test details: phase I part A plasma pharmacokinetics
# Type: in vivo, human
# protocol conditions: human, plasma, inhaled or intranasal, 10 mg
measured quantity: AUC(0-t) (ng·h/mL)

{"molecule": "CCc1cc(O)ccc1-c1ccc2c(-c3nc4c([nH]3)CN(C(C)C)[C@H](C(=O)N3CC(N(C)C)C3)C4)n[nH]c2c1", "assay result": 157}

---

# test details: phase I part B plasma pharmacokinetics
# Format: in vivo, human
# protocol conditions: human, plasma, inhaled, 10 mg
measured quantity: AUC

{"molecule": "CCc1cc(O)ccc1-c1ccc2c(-c3nc4c([nH]3)CN(C(C)C)[C@H](C(=O)N3CC(N(C)C)C3)C4)n[nH]c2c1", "assay result": "178 ng·h/mL"}

---

# test details: phase I part A plasma pharmacokinetics
# Assay type: in vivo, human
# protocol conditions: human, plasma, inhaled or intranasal
measured quantity: Tmax

{"compound": "CCc1cc(O)ccc1-c1ccc2c(-c3nc4c([nH]3)CN(C(C)C)[C@H](C(=O)N3CC(N(C)C)C3)C4)n[nH]c2c1 [Nezulcitinib]", "assay result": "~1 h"}

---

# test details: phase I part B plasma pharmacokinetics
# Assay type: in vivo, human
# protocol conditions: human, plasma, inhaled, 10 mg
measured quantity: Cmax (ng/mL)

{"compound": "CCc1cc(O)ccc1-c1ccc2c(-c3nc4c([nH]3)CN(C(C)C)[C@H](C(=O)N3CC(N(C)C)C3)C4)n[nH]c2c1 [Nezulcitinib]", "measured quantity": "Cmax", "unit string": "ng/mL", "assay result": 49.6}

---

# test details: phase I part B plasma pharmacokinetics
# Assay type: in vivo, human
# protocol conditions: human, plasma, inhaled, 3 mg

{"molecule": "CCc1cc(O)ccc1-c1ccc2c(-c3nc4c([nH]3)CN(C(C)C)[C@H](C(=O)N3CC(N(C)C)C3)C4)n[nH]c2c1 [Nezulcitinib]", "Tmax, h": 1}

---

# test details: phase I part A plasma pharmacokinetics
# Format: in vivo, human
# protocol conditions: human, plasma, inhaled or intranasal, 1 mg
measured quantity: Vd/F (L)

{"molecule": "CCc1cc(O)ccc1-c1ccc2c(-c3nc4c([nH]3)CN(C(C)C)[C@H](C(=O)N3CC(N(C)C)C3)C4)n[nH]c2c1", "unit string": "L", "assay result": 1390}

---

# test details: human plasma protein binding
# Format: in vitro ADME
measured quantity: fraction unbound

{"molecule": "CCc1cc(O)ccc1-c1ccc2c(-c3nc4c([nH]3)CN(C(C)C)[C@H](C(=O)N3CC(N(C)C)C3)C4)n[nH]c2c1 [Nezulcitinib]", "measured quantity": "fraction unbound", "assay result": 0.019}

---

# test details: phase I part B plasma pharmacokinetics
# Format: in vivo, human
# protocol conditions: human, plasma, inhaled, 10 mg

{"molecule": "CCc1cc(O)ccc1-c1ccc2c(-c3nc4c([nH]3)CN(C(C)C)[C@H](C(=O)N3CC(N(C)C)C3)C4)n[nH]c2c1", "Tmax (h)": 1}

---

# test details: phase I part A plasma pharmacokinetics
# Assay type: in vivo, human
# protocol conditions: human, plasma, inhaled or intranasal, 10 mg

{"molecule": "CCc1cc(O)ccc1-c1ccc2c(-c3nc4c([nH]3)CN(C(C)C)[C@H](C(=O)N3CC(N(C)C)C3)C4)n[nH]c2c1 [Nezulcitinib]", "Vd/F / L": 2200}

Cited source for all entries: paper PMC8444931
